Test: pharmakinetic variables in SD rats
Conditions: rat, in vivo, iv, 20 mg/kg
Quantity name: half-life (min)
The answer is to be given in min; state only the numeric part.

response.value for Nc1cc(SCC2=C(C(=O)O)N3C(=O)[C@@H](NC(=O)/C(=N\O[C@H](C(=O)O)c4ccc(O)c(O)c4)c4csc(N)n4)[C@H]3SC2)nc(N)n1 (field: half-life) = 62

For Nc1cc(SCC2=C(C(=O)O)N3C(=O)[C@@H](NC(=O)/C(=N\O[C@H](C(=O)O)c4ccc(O)c(O)c4)c4csc(N)n4)[C@H]3SC2)ncn1 the compound record lists half-life as 59

Per the records, this compound ( Nc1nc(/C(=N/O[C@H](C(=O)O)c2ccc(O)c(O)c2)C(=O)N[C@@H]2C(=O)N3C(C(=O)O)=C(CSc4nc(N)c5c(n4)CCC5)CS[C@H]23)cs1 ) has half-life equal to 57

response.value for Nc1nc(/C(=N/O[C@H](C(=O)O)c2ccc(O)c(O)c2)C(=O)N[C@@H]2C(=O)N3C(C(=O)O)=C(CSc4nc(N)c(N)c(N)n4)CS[C@H]23)cs1 (field: half-life) = 59

Documented half-life of Cc1c(N)nc(SCC2=C(C(=O)O)N3C(=O)[C@@H](NC(=O)/C(=N\O[C@H](C(=O)O)c4ccc(O)c(O)c4)c4csc(N)n4)[C@H]3SC2)nc1N : 55

According to the records, this compound Nc1ccnc(SCC2=C(C(=O)O)N3C(=O)[C@@H](NC(=O)/C(=N\O[C@H](C(=O)O)c4ccc(O)c(O)c4)c4csc(N)n4)[C@H]3SC2)n1 displays half-life of 58

The value of half-life measured for the compound Nc1cc(N)nc(SCC2=C(C(=O)O)N3C(=O)[C@@H](NC(=O)/C(=N\O[C@H](C(=O)O)c4ccc(O)c(O)c4)c4csc(N)n4)[C@H]3SC2)n1 turned out to be 62

---

Test: pharmakinetic variables in SD rats
Conditions: rat, in vivo, iv, 20 mg/kg
Quantity name: AUC at 2 h

The reported AUC at 2 h of the compound Nc1ccnc(SCC2=C(C(=O)O)N3C(=O)[C@@H](NC(=O)/C(=N\O[C@H](C(=O)O)c4ccc(O)c(O)c4)c4csc(N)n4)[C@H]3SC2)n1 was 57900 ng·h/mL

Form field AUC at 2 h, entry Nc1nc(/C(=N/O[C@H](C(=O)O)c2ccc(O)c(O)c2)C(=O)N[C@@H]2C(=O)N3C(C(=O)O)=C(CSc4nc(N)c5c(n4)CCC5)CS[C@H]23)cs1 : 55500 ng·h/mL

get_value(item= Nc1nc(/C(=N/O[C@H](C(=O)O)c2ccc(O)c(O)c2)C(=O)N[C@@H]2C(=O)N3C(C(=O)O)=C(CSc4nc(N)c(N)c(N)n4)CS[C@H]23)cs1 , readout=AUC at 2 h) returns 59500 ng·h/mL

---

System: Staphylococcus epidermidis 887E
Assay: MIC, two-fold agar dilution
Type: cell-based
Conditions: Muller-Hinton agar, 37° C., 20 hours
Quantity name: minimal inhibitory concentration (MIC)
Please give the numeric answer without any surrounding text.

Reported minimal inhibitory concentration (MIC) for Nc1cc(SCC2=C(C(=O)O)N3C(=O)[C@@H](NC(=O)/C(=N\O[C@@H](C(=O)O)c4ccc(O)c(O)c4)c4csc(N)n4)[C@H]3SC2)nc(N)n1 [Compound I-6R] was 32

minimal inhibitory concentration (MIC) in this record for Nc1cc(SCC2=C(C(=O)O)N3C(=O)[C@@H](NC(=O)/C(=N\O[C@H](C(=O)O)c4ccc(O)c(O)c4)c4csc(N)n4)[C@H]3SC2)nc(N)n1 [Compound I-6S] : 32

Query Nc1ccnc(SCC2=C(C(=O)O)N3C(=O)[C@@H](NC(=O)/C(=N\O[C@H](C(=O)O)c4ccc(O)c(O)c4)c4csc(N)n4)[C@H]3SC2)n1 [Compound I-3S] yields minimal inhibitory concentration (MIC) of 32

Per the records, this molecule ( Cc1c(N)nc(SCC2=C(C(=O)O)N3C(=O)[C@@H](NC(=O)/C(=N\O[C@H](C(=O)O)c4ccc(O)c(O)c4)c4csc(N)n4)[C@H]3SC2)nc1N [Compound I-2S] ) has minimal inhibitory concentration (MIC) equal to 16

---

Tested on: Enterobacter cloacae P99
Assay: MIC, two-fold agar dilution
Type: cell-based
Conditions: Muller-Hinton agar, 37° C., 20 hours
Please respond with reported minimal inhibitory concentration (MIC) for every item in the list.
Lab note: jot the number down without any unit.

Form: compound = Cc1c(N)nc(SCC2=C(C(=O)O)N3C(=O)[C@@H](NC(=O)/C(=N\O[C@@H](C(=O)O)c4ccc(O)c(O)c4)c4csc(N)n4)[C@H]3SC2)nc1N ; minimal inhibitory concentration (MIC) = 32

Consider Nc1nc(/C(=N/O[C@@H](C(=O)O)c2ccc(O)c(O)c2)C(=O)N[C@@H]2C(=O)N3C(C(=O)O)=C(CSc4nc(N)c5c(n4)CCC5)CS[C@H]23)cs1 . Its measured minimal inhibitory concentration (MIC) is 32

For this compound ( Nc1cc(N)nc(SCC2=C(C(=O)O)N3C(=O)[C@@H](NC(=O)/C(=N\O[C@H](C(=O)O)c4ccc(O)c(O)c4)c4csc(N)n4)[C@H]3SC2)n1 ), measured minimal inhibitory concentration (MIC) is 16

---

System: E. coli TEM9 2639E
Test: MIC, two-fold agar dilution
Format: cell-based
Details: Muller-Hinton agar, 37° C., 20 hours
Record form. Attribute: minimal inhibitory concentration (MIC). Fill in for each entry.
Note: the reply should be a number with no unit written.

Lab note: measured minimal inhibitory concentration (MIC) of Nc1cc(SCC2=C(C(=O)O)N3C(=O)[C@@H](NC(=O)/C(=N\O[C@H](C(=O)O)c4ccc(O)c(O)c4)c4csc(N)n4)[C@H]3SC2)ncn1 was 0.13

Recorded minimal inhibitory concentration (MIC) (molecule Nc1ccnc(SCC2=C(C(=O)O)N3C(=O)[C@@H](NC(=O)/C(=N\O[C@@H](C(=O)O)c4ccc(O)c(O)c4)c4csc(N)n4)[C@H]3SC2)n1 ): 0.5

Lookup result for Nc1nc(/C(=N/O[C@@H](C(=O)O)c2ccc(O)c(O)c2)C(=O)N[C@@H]2C(=O)N3C(C(=O)O)=C(CSc4nc(N)c5c(n4)CCC5)CS[C@H]23)cs1 ; measured minimal inhibitory concentration (MIC): 0.5

# minimal inhibitory concentration (MIC) (molecule: Nc1cc(N)nc(SCC2=C(C(=O)O)N3C(=O)[C@@H](NC(=O)/C(=N\O[C@H](C(=O)O)c4ccc(O)c(O)c4)c4csc(N)n4)[C@H]3SC2)n1 ) is 0.25

The measured minimal inhibitory concentration (MIC) associated with Nc1nc(/C(=N/O[C@H](C(=O)O)c2ccc(O)c(O)c2)C(=O)N[C@@H]2C(=O)N3C(C(=O)O)=C(CSc4nc(N)c5c(n4)CCC5)CS[C@H]23)cs1 reads 0.25

---

Tested on: Staphylococcus epidermidis 887E
Test: MIC, two-fold agar dilution
Assay type: cell-based
Settings: Muller-Hinton agar, 37° C., 20 hours
Quantity name: minimal inhibitory concentration (MIC)
// no unit string in output, number only

The value of minimal inhibitory concentration (MIC) measured for the compound Nc1nc(/C(=N/O[C@H](C(=O)O)c2ccc(O)c(O)c2)C(=O)N[C@@H]2C(=O)N3C(C(=O)O)=C(CSc4nc(N)c(N)c(N)n4)CS[C@H]23)cs1 turned out to be 32

Nc1cc(SCC2=C(C(=O)O)N3C(=O)[C@@H](NC(=O)/C(=N\O[C@@H](C(=O)O)c4ccc(O)c(O)c4)c4csc(N)n4)[C@H]3SC2)ncn1 has a reported minimal inhibitory concentration (MIC) of 32

Nc1cc(SCC2=C(C(=O)O)N3C(=O)[C@@H](NC(=O)/C(=N\O[C@H](C(=O)O)c4ccc(O)c(O)c4)c4csc(N)n4)[C@H]3SC2)ncn1 has a reported minimal inhibitory concentration (MIC) of 32

---

Can you tell me AUC at 2 h for the items I'm about to list?
Assay: pharmakinetic variables in SD rats
Settings: rat, in vivo, iv, 20 mg/kg
Express your answer in ng·h/mL, writing the number without its unit.

The measured AUC at 2 h associated with CC(C)(O/N=C(\C(=O)N[C@@H]1C(=O)N2C(C(=O)[O-])=C(C[n+]3ccccc3)CS[C@H]12)c1csc(N)n1)C(=O)O [Ceftazidime, reference compound] reads 31100

The compound Nc1cc(SCC2=C(C(=O)O)N3C(=O)[C@@H](NC(=O)/C(=N\O[C@H](C(=O)O)c4ccc(O)c(O)c4)c4csc(N)n4)[C@H]3SC2)nc(N)n1 showed AUC at 2 h equal to 59800

Per the records, this compound ( Cc1c(N)nc(SCC2=C(C(=O)O)N3C(=O)[C@@H](NC(=O)/C(=N\O[C@H](C(=O)O)c4ccc(O)c(O)c4)c4csc(N)n4)[C@H]3SC2)nc1N ) has AUC at 2 h equal to 54100

Kindly note the recorded AUC at 2 h for Nc1cc(N)nc(SCC2=C(C(=O)O)N3C(=O)[C@@H](NC(=O)/C(=N\O[C@H](C(=O)O)c4ccc(O)c(O)c4)c4csc(N)n4)[C@H]3SC2)n1 , which is 61600

The compound listed as Nc1cc(SCC2=C(C(=O)O)N3C(=O)[C@@H](NC(=O)/C(=N\O[C@H](C(=O)O)c4ccc(O)c(O)c4)c4csc(N)n4)[C@H]3SC2)ncn1 shows AUC at 2 h equal to 60000
